- System: OVCAR-5 ovarian
- experiment_summary: NCI tumour cell line growth inhibition, 48 h
Property: TGI; scope: individual compounds

Illustrative cases are given below, each with its answer.
Exercise: Any idea what TGI was measured for O=[N+]([O-])c1cccc2nc3ccccc3c(NCCC[N+]3([O-])CCOCC3)c12 ?
Key: 1.5 µM

Exercise: Any idea what TGI was measured for CNc1nc(N)c(N=O)c(Nc2ccc(Br)cc2)n1 ?
Key: > 100 µM

Exercise: Any idea what TGI was measured for CC[C@H](C)[C@H]1O[C@]2(C=C[C@@H]1C)C[C@@H]1C[C@@H](C/C=C(\C)[C@@H](O[C@H]3C[C@H](OC)[C@@H](O[C@H]4C[C@H](OC)[C@@H](NC)[C@H](C)O4)[C@H](C)O3)[C@@H](C)/C=C/C=C3\CO[C@@H]4[C@H](O)C(C)=C[C@@H](C(=O)O1)[C@]34O)O2 ?
Key: 14.9 µM

Exercise: Any idea what TGI was measured for COc1ccccc1Cn1cc2c(c1-c1ccccc1)CCc1cnoc1-2 ?
Key: > 100 µM

Exercise: Any idea what TGI was measured for CC(C)CCCC(=O)CCCCCCC(=O)CCN(O)C(=O)C(N)CO (stereo unspecified) ?
Key: 50.6 µM

***
Exercise: Any idea what TGI was measured for COc1cc(OC)cc(-c2nc3cc(F)ccc3s2)c1 ?
Key: > 100 µM

Exercise: Any idea what TGI was measured for C=C1CCC23CC(CC[C@@H]2[C@@]12C[C@@H](c1ccoc1)OC2=O)OC3=O (stereo partly specified) ?
Key: > 100 µM

Exercise: Any idea what TGI was measured for CN(C)CCCN1c2ccccc2Sc2cnccc21 ?
Key: > 100 µM

Exercise: Any idea what TGI was measured for NC(=S)Nc1ccc(S(=O)(=O)Nc2ccc(S(N)(=O)=O)cc2)cc1 ?
Key: > 100 µM

Exercise: Any idea what TGI was measured for c1cc2c(ncc3cscc32)s1 ?
Key: > 100 µM

Exercise: Any idea what TGI was measured for CN1C(=O)c2ccccc2NC(=O)C12O[C@@H]2c1cccc(O)c1 (stereo partly specified) ?
Key: > 100 µM

Exercise: Any idea what TGI was measured for CCO/N=C(/N)c1ncn(Cc2ccccc2)c1NCC(OCC)OCC ?
Key: > 100 µM

Exercise: Any idea what TGI was measured for CC(=O)N1C/C(=C\c2ccc(N(C)C)cc2)C(=O)/C(=C/c2ccc(N(C)C)cc2)C1 ?
Key: > 100 µM

Exercise: Any idea what TGI was measured for COc1cc(/C=C2\N=C(c3ccccc3)N(c3nc4c(OC)ccc(OC)c4s3)C2=O)ccc1O ?
Key: > 100 µM

Exercise: Any idea what TGI was measured for Cc1cccc2c(N)c3cccc(C(=O)NCC[N+](C)(C)Cc4c([N+](=O)[O-])ncn4C)c3nc12 ?
Key: > 100 µM

Exercise: Any idea what TGI was measured for COc1ccc(N2C(=O)C3ON(C(C(N)=O)c4ccccc4)C(c4cc5ccccc5c5ccccc45)C3C2=O)cc1 (stereo unspecified) ?
Key: > 50 µM

Exercise: Any idea what TGI was measured for Cn1c(=O)c2[nH]c(CCCCC(=O)O)nc2n(C)c1=O ?
Key: > 100 µM

Exercise: Any idea what TGI was measured for COc1ccc(C2C3=C(Nc4ncnn42)c2ccccc2OC3c2ccccc2)cc1 (stereo unspecified) ?
Key: > 100 µM

Exercise: Any idea what TGI was measured for CCOC(=O)C(Cc1cn(S(=O)(=O)c2ccccc2)c2ccccc12)(NC(C)=O)C(=O)OCC ?
Key: > 100 µM

Exercise: Any idea what TGI was measured for CCn1c(SCC(=O)NNC(=S)Nc2ccc(C)cc2)nc2ccccc2c1=O ?
Key: > 100 µM

Exercise: Any idea what TGI was measured for CC(C)c1cc2c(O)c(c1)Cc1cc(C(C)C)cc(c1O)Cc1cc(C(C)C)cc(c1O)Cc1cc(C(C)C)cc(c1O)C2 ?
Key: > 100 µM

Exercise: Any idea what TGI was measured for Cc1nc2ccccc2n1C(=O)c1c(F)c(F)c(F)c(F)c1F ?
Key: 40.8 µM

# credit: PubChem BioAssay (NCI)
